# assay-system: Human SGLT2 (hSGLT2) (Homo sapiens, UniProt P31639)
# measurement-protocol: Sodium-dependent glucose transport (14C-AMG uptake) assay in CHO cells stably expressing hSGLT2
# experimental-setup: CHO cells expressing hSGLT2, 14C-AMG uptake, 37° C. for 2 h; single determinations; read-out: hSGLT2 Inhibitory Activity IC50
assay-endpoint: IC50 (nM)

(I) OC[C@H]1O[C@@H](c2ccc(Cl)c(Cc3cnc(-c4ccc(F)cc4)s3)c2)[C@H](O)[C@@H](O)[C@@H]1O [Example 194]
(II) CCOc1cnc(Cc2cc([C@@H]3O[C@H](CO)[C@@H](O)[C@H](O)[C@H]3O)c3ccccc3c2O)s1 [Example 128]
(III) CCCCCc1cnc(Cc2cc([C@@H]3O[C@H](CO)[C@@H](O)[C@H](O)[C@H]3O)ccc2Cl)s1 [Example 14]
(IV) N#Cc1ccc([C@@H]2O[C@H](CO)[C@@H](O)[C@H](O)[C@H]2O)cc1Cc1ncc(-c2ccco2)s1 [Example 108]
(V) OC[C@H]1O[C@@H](c2ccc(Cl)c(Cc3ncc(-c4ccsc4)s3)c2)[C@H](O)[C@@H](O)[C@@H]1O [Example 1]
Please list the entries, largest IC50 first. // rank by listing labels in the order requested
II, IV, III, I, V

====

# assay-system: Human SGLT2 (hSGLT2) (Homo sapiens)
# measurement-protocol: Sodium-dependent glucose transport (14C-AMG uptake) assay in CHO cells stably expressing hSGLT2
# experimental-setup: CHO cells expressing hSGLT2, 14C-AMG uptake, 37° C. for 2 h; single determinations; read-out: hSGLT2 Inhibitory Activity IC50
pIC50: −log10 of the molar value.
assay-endpoint: pIC50

(A) Cc1ccc([C@@H]2O[C@H](CO)[C@@H](O)[C@H](O)[C@H]2O)cc1Cc1ncc(-c2ccsc2)s1 [Example 33]
(B) OC[C@H]1O[C@@H](c2cc(Cc3ncc(-c4ccccc4)s3)c(Cl)cc2F)[C@H](O)[C@@H](O)[C@@H]1O [Example 57]
(C) OC[C@H]1O[C@@H](c2ccc(Cl)c(Cc3ncc(-c4ccc(F)cc4)s3)c2)[C@H](O)[C@@H](O)[C@@H]1O [Example 11]
Consider the compounds listed above. Rank them by pIC50 in ascending numerical order. // rank by listing labels in the order requested
C, B, A
(C: 7.67, B: 8.34, A: 8.89)

====

# assay-system: UniProt:P31639
# measurement-protocol: Sodium-dependent glucose transport (14C-AMG uptake) assay in CHO cells stably expressing hSGLT2
# experimental-setup: CHO cells expressing hSGLT2, 14C-AMG uptake, 37° C. for 2 h; single determinations; read-out: hSGLT2 Inhibitory Activity IC50
assay-endpoint: IC50 (nM)

OC[C@H]1O[C@@H](c2ccc(C(F)(F)F)c(Cc3ncc(-c4ccsc4)s3)c2)[C@H](O)[C@@H](O)[C@@H]1O : 14.6
COc1c(Cc2ncc(-c3ccccc3)s2)cc([C@@H]2O[C@H](CO)[C@@H](O)[C@H](O)[C@H]2O)c2ccccc12 : 6.77
Cc1ccc(S(=O)(=O)OC[C@H]2O[C@@H](c3ccc(Cl)c(Cc4ncc(-c5ccco5)s4)c3)[C@H](O)[C@@H](O)[C@@H]2O)cc1 : 156
C/C=C(\C)c1cnc(Cc2cc([C@@H]3O[C@H](CO)[C@@H](O)[C@H](O)[C@H]3O)ccc2Cl)s1 : 4.69

(I) CCCCCCc1cnc(Cc2cc([C@@H]3O[C@H](CO)[C@@H](O)[C@H](O)[C@H]3O)ccc2Cl)s1
(II) OC[C@H]1O[C@@H](c2ccc(C(F)(F)F)c(Cc3ncc(-c4cccs4)s3)c2)[C@H](O)[C@@H](O)[C@@H]1O
Which shows the larger IC50 value: I or II ? # answer = label of selected item
II
(II: 16.9 nM, I: 5 nM)

(1) Cc1ccc(-c2cnc(Cc3cc([C@@H]4O[C@H](CO)[C@@H](O)[C@H](O)[C@H]4O)ccc3C)s2)cc1
(2) CC(C)(C)OC(=O)OC[C@H]1O[C@@H](c2ccc(Cl)c(Cc3ncc(-c4ccco4)s3)c2)[C@H](O)[C@@H](O)[C@@H]1O
(3) CCCCCCc1cnc(Cc2cc([C@@H]3O[C@H](CO)[C@@H](O)[C@H](O)[C@H]3O)c(OC)cc2Cl)s1
# rank_down: sort by IC50, max first // rank by listing labels in the order requested
2, 1, 3

====

# assay-system: Human SGLT2 (hSGLT2) (Homo sapiens)
# measurement-protocol: Sodium-dependent glucose transport (14C-AMG uptake) assay in CHO cells stably expressing hSGLT2
# experimental-setup: CHO cells expressing hSGLT2, 14C-AMG uptake, 37° C. for 2 h; single determinations; read-out: hSGLT2 Inhibitory Activity IC50
# From the text: Cloning and Cell Line Construction for Human SGLT2 Human SGLT2 (hSGLT2) gene was amplified by PCR from cDNA-Human Adult Normal Tissue Kidney (Invitrogen). The hSGLT2 sequence was cloned into pcDNA3.1(+) for mammalian expression and were stably transfected into chinese hamster ovary (CHO) cells. SGLT2-expressing clones were selected based on resistance to G418 antibiotic (Geneticin) and activity in the ^14C-α-methyl-D-glucopyranoside (^14C-AMG) uptake assay. […]
assay-endpoint: IC50 (nM)

OC[C@H]1O[C@@H](n2cc(Cc3ncc(-c4ccco4)s3)c3ccccc32)[C@H](O)[C@@H](O)[C@@H]1O [Example 130] : 8.75
COc1c(Cc2ncc(-c3ccco3)s2)cc([C@@H]2O[C@H](CO)[C@@H](O)[C@H](O)[C@H]2O)c2ccccc12 [Example 95] : 2.94
C=CCOc1cc(Cl)c(Cc2ncc(-c3ccc(F)cc3)s2)cc1[C@@H]1O[C@H](CO)[C@@H](O)[C@H](O)[C@H]1O [Example 88] : 4.22

(I) OC[C@H]1O[C@@H](c2cc(Cc3ncc(-c4cccs4)s3)cc3ccccc23)[C@H](O)[C@@H](O)[C@@H]1O [Example 94]
(II) OC[C@H]1O[C@@H](c2cc(Cc3ncc(-c4ccco4)s3)c(Cl)cc2O)[C@H](O)[C@@H](O)[C@@H]1O [Example 112]
(III) CCOc1cnc(Cc2cc([C@@H]3O[C@H](CO)[C@@H](O)[C@H](O)[C@H]3O)ccc2Cl)s1 [Example 21]
(IV) OC[C@H]1O[C@@H](c2cc(Cc3ncc(-c4ccccc4)s3)c(O)c3ccccc23)[C@H](O)[C@@H](O)[C@@H]1O [Example 125]
Exam item: list the entries in increasing order of IC50. // rank by listing labels in the order requested
II, I, III, IV

====

# assay-system: Human SGLT2 (hSGLT2) (Homo sapiens, UniProt P31639)
# Sequence (P31639 1-672): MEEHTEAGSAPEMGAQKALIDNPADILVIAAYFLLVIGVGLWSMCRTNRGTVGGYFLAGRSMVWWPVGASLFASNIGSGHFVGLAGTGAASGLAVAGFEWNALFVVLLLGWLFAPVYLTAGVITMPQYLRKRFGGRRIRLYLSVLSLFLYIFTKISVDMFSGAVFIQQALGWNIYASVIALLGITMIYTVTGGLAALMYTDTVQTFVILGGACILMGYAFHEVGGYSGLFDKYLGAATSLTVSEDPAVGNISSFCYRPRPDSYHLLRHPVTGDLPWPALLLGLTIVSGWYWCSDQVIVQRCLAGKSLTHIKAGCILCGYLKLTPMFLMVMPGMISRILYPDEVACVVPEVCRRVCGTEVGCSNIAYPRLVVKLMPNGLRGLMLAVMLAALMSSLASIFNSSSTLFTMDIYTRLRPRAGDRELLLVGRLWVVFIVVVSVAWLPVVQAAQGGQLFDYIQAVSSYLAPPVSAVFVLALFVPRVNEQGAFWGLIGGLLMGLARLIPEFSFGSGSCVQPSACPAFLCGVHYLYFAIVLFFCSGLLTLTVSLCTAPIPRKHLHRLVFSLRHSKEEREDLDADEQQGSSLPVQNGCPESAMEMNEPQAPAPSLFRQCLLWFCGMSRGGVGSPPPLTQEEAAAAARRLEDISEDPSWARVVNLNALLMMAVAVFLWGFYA
# measurement-protocol: Sodium-dependent glucose transport (14C-AMG uptake) assay in CHO cells stably expressing hSGLT2
# experimental-setup: CHO cells expressing hSGLT2, 14C-AMG uptake, 37° C. for 2 h; single determinations; read-out: hSGLT2 Inhibitory Activity IC50
# Text: Cloning and Cell Line Construction for Human SGLT2 Human SGLT2 (hSGLT2) gene was amplified by PCR from cDNA-Human Adult Normal Tissue Kidney (Invitrogen). The hSGLT2 sequence was cloned into pcDNA3.1(+) for mammalian expression and were stably transfected into chinese hamster ovary (CHO) cells. SGLT2-expressing clones were selected based on resistance to G418 antibiotic (Geneticin) and activity in the ^14C-α-methyl-D-glucopyranoside (^14C-AMG) uptake assay. […]
pIC50: −log10 of the molar value.
assay-endpoint: pIC50

Some solved cases for reference:
OC[C@H]1O[C@@H](c2ccc(Cl)c(Cc3cnc(-c4cccs4)s3)c2)[C@H](O)[C@@H](O)[C@@H]1O [Example 187] : 8.55
CCCCc1cnc(Cc2cc([C@@H]3O[C@H](CO)[C@@H](O)[C@H](O)[C@H]3O)ccc2Cl)s1 [Example 13] : 6.92
OC[C@H]1O[C@@H](c2ccc(Cl)c(Cc3ncc(-c4ccc(Cl)s4)s3)c2)[C@H](O)[C@@H](O)[C@@H]1O [Example 8] : 7.88
Cc1ccc([C@@H]2O[C@H](CO)[C@@H](O)[C@H](O)[C@H]2O)cc1Cc1ncc(-c2cccs2)s1 [Example 32] : 8.42
OC[C@H]1O[C@@H](c2ccc(Cl)c(Cc3cnc(-c4ccoc4)s3)c2)[C@H](O)[C@@H](O)[C@@H]1O [Example 186] : 8.35
OC[C@H]1O[C@@H](c2cc(Cc3ncc(-c4ccoc4)s3)c(Cl)cc2F)[C@H](O)[C@@H](O)[C@@H]1O [Example 54] : 8.27
C=CCOc1cc(Cl)c(Cc2ncc(-c3ccsc3)s2)cc1[C@@H]1O[C@H](CO)[C@@H](O)[C@H](O)[C@H]1O [Example 86] : 9.03
COc1c(Cc2ncc(C)s2)cc([C@@H]2O[C@H](CO)[C@@H](O)[C@H](O)[C@H]2O)c2ccccc12 [Example 98] : 7.52
OC[C@H]1O[C@@H](c2ccc(F)c(Cc3ncc(-c4ccccc4)s3)c2)[C@H](O)[C@@H](O)[C@@H]1O [Example 44] : 7.51
OC[C@H]1O[C@@H](c2cc(Cc3cnc(-c4ccsc4)s3)c(Cl)cc2F)[C@H](O)[C@@H](O)[C@@H]1O [Example 203] : 8.86

(a) Cc1cnc(Cc2cc([C@@H]3O[C@H](CO)[C@@H](O)[C@H](O)[C@H]3O)c(Cl)cc2Cl)s1 [Example 63]
(b) CCc1cnc(Cc2cc([C@@H]3O[C@H](CO)[C@@H](O)[C@H](O)[C@H]3O)ccc2Cl)s1 [Example 12]
Compare pIC50: is it lower for a or for b ? # answer = label of selected item
a

(P) CCOC(=O)OC[C@H]1O[C@@H](c2ccc(Cl)c(Cc3ncc(-c4ccsc4)s3)c2)[C@H](O)[C@@H](O)[C@@H]1O [Example 165]
(Q) CCCc1cnc(Cc2cn([C@@H]3O[C@H](CO)[C@@H](O)[C@H](O)[C@H]3O)c3ccccc23)s1 [Example 134]
Which shows the larger pIC50 value: P or Q ? # answer = label of selected item
P
(P: 8.13, Q: 6.97)
